# measured.on: hTRPA1 (Homo sapiens)
# Sequence (O75762 whole entry): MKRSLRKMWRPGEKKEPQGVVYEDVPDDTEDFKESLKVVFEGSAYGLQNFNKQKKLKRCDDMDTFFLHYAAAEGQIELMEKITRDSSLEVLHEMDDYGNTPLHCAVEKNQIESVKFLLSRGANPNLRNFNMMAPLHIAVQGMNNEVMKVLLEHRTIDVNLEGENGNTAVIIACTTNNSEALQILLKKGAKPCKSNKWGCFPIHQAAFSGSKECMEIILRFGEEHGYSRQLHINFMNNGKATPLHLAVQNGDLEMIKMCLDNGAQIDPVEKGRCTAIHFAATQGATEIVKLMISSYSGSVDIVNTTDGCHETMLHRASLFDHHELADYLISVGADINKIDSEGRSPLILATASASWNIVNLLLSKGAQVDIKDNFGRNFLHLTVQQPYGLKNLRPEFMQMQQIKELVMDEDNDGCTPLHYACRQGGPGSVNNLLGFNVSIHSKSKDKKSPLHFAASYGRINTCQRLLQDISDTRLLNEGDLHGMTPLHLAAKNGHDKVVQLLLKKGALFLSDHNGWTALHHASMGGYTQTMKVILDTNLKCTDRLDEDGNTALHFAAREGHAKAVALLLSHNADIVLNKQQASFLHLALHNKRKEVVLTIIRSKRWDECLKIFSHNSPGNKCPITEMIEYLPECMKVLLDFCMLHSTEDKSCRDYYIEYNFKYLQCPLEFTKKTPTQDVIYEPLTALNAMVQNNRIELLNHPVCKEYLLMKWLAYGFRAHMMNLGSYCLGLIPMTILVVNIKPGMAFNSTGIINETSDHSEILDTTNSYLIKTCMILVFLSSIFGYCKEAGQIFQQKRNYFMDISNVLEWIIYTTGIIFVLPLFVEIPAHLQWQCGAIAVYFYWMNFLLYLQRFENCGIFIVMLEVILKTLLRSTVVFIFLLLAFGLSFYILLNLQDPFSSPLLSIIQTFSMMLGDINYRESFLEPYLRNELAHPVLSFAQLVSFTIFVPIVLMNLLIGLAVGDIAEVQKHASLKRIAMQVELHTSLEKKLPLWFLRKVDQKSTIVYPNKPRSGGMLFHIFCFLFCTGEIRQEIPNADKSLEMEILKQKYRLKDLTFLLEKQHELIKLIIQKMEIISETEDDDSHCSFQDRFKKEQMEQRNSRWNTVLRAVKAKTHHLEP
# experiment.notes: Single cell confocal Ca2+ imaging (fluo-4) in transfected HEK293 cells
# Assay type: cell-based
# Parameters: host or cells: HEK293 (ATCC CRL-1573.3), transient
# condition.label: 100μM
observed.property: Ca2+ response in hTRPA1 expressing cells

compound	recorded.result
O=C(C1CCCCC1)N1CC(=O)N2CCc3ccccc3[C@@H]2C1 [(R)-PZQ]	activation of hTRPA1
O=C(C1CCCCC1)N1CC(=O)N2CCc3ccccc3[C@H]2C1 [(S)-PZQ]	activation of hTRPA1
